Hey, just so you know, these numbers are from patent US8710049B2.

- target_desc: Y4 receptor (Homo sapiens, UniProt P50391)
- Sequence (P50391 whole entry): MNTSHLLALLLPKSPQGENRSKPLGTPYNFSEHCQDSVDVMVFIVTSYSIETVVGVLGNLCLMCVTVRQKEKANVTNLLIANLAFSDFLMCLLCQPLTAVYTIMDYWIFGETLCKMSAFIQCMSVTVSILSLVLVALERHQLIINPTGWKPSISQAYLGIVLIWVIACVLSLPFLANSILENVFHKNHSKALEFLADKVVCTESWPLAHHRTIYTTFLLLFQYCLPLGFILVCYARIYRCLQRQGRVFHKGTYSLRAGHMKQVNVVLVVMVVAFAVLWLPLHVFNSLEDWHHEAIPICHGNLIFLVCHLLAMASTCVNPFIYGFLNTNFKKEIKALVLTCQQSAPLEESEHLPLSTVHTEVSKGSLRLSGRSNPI
- experimental_protocol: NPY4 cAMP HTRF Agonist Assay
- run_conditions: human Y4 stable CHO clonal cells; inhibitory cAMP assay with Forskolin and IBMX, 30 minutes at room temperature
Parameter log10 of EC50: see the listing below.
endpoint: log10 of EC50 (log10 of the value in nM)

smiles_entry | target_desc | log10 of EC50
N#Cc1ccc(N2CCC[C@H](N[C@@H]3CCCC[C@H]3NC(=O)OCc3ccc(OC(F)(F)F)cc3)C2)cc1 | Y4 receptor (Homo sapiens, UniProt P50391) | 1.86
COc1ccc(COC(=O)N[C@@H]2CCCC[C@H]2N[C@H]2CCCN(c3ccc(C#N)cc3)C2)cc1 | Y4 receptor (Homo sapiens, UniProt P50391) | 2.76
N#Cc1cc(N2CCC[C@H](N[C@@H]3CCCC[C@H]3NC(=O)Nc3ccccc3)C2)ccn1 | Y4 receptor (Homo sapiens, UniProt P50391) | 3.16
CCOC(=O)c1ccc(N2CC[C@H](N[C@@H]3CCCC[C@H]3NC(=O)OCc3ccccc3)C2)cc1 | Y4 receptor (Homo sapiens, UniProt P50391) | 2.73
Cn1cc(CC(=O)N[C@@H]2CCCC[C@H]2N[C@H]2CCCN(c3ccc(C#N)cc3)C2)c2ccccc21 | Y4 receptor (Homo sapiens, UniProt P50391) | 2.52
N#Cc1ccc(N2CCC[C@H](N[C@@H]3CCCC[C@H]3NC(=O)Nc3ccc(C(F)(F)F)cc3)C2)cc1 | Y4 receptor (Homo sapiens, UniProt P50391) | 3.56
O=C(N[C@@H]1CCCC[C@H]1N[C@H]1CCCN(c2ccc(-c3nc4ccccc4o3)cc2)C1)OCc1ccccc1 | Y4 receptor (Homo sapiens, UniProt P50391) | 3.15
